Test system: SN12C
test: NCI tumour cell line growth inhibition, 48 h
Active and inactive are the calls of the source. No stated cut-off is given here; in the data, active = GI50 up to about 1.1 µM and inactive = higher.
Measured GI50, listed per entry for reference.

Example molecules with recorded GI50:
N#CC(C#N)=C1C(=O)NC(N)=C1C#N | > 100 µM (inactive)
O=C1/C(=C/c2ccc([N+](=O)[O-])cc2)C(=O)N(c2ccccc2)C1c1ccccc1 (stereo not drawn) | > 10 µM (inactive)

Please look at the following molecule next.
Query block: Answer with the recorded GI50 for the molecule listed here: CCCCc1nc(C)oc1C(C)C
Result block: > 100 µM (inactive)

---

Measured GI50, listed per entry.
System: T47D
test: NCI tumour cell line growth inhibition, 48 h
Calls of active or inactive are those of the source. No stated cut-off is given here; in the data, active = GI50 up to about 1.1 µM and inactive = higher.

Solved entries:
CN1CC(S(=O)(=O)c2ccccc2)CC(S(=O)(=O)c2ccccc2)C1c1ccccc1 (centres undefined) | 18.2 µM (inactive)
Cc1ccc(/N=N/c2ccc(O)c(CN(C)C)c2)cc1 | 13.7 µM (inactive)
COc1ccc(C2=NN(C(=O)c3ccc(Cl)cc3)C(O)(c3cc(F)c(Cl)cc3Cl)C2)cc1OC (centres undefined) | 6.27 µM (inactive)
CCN1C(=O)C(=Cc2ccc(-c3ccccc3)cc2)C(=O)N(CC)C1=S | > 100 µM (inactive)
CC(=O)O[C@H]1C(=O)[C@@]2(C)[C@H]([C@H](OC(=O)c3ccccc3)[C@]3(O)C[C@H](OC(=O)[C@H](O)[C@@H](NC(=O)c4ccccc4)c4ccc5ccccc5c4)C(C)=C1C3(C)C)[C@]1(OC(C)=O)CO[C@@H]1C[C@@H]2O | 2.16 µM (inactive)
ClCc1nc2ccccc2[nH]1 | > 100 µM (inactive)
OC1COC2CC(Nc3ccccn3)OC12 (centres undefined) | > 100 µM (inactive)
CCOC(=O)/C(C(=O)Nc1cccc(C(F)(F)F)c1)=C(/N)N1CCCC1 | 47.8 µM (inactive)

Please look at the following molecule next.
Query block: Return GI50 for the following molecule: NC1CC(=O)c2csc(Cl)c21 (centres undefined)
Result block: 3.98 µM (inactive)

---

Test system: OVCAR-8
test: NCI tumour cell line growth inhibition, 48 h
The source made the active and inactive calls. No stated cut-off is given here; in the data, active = GI50 up to about 1.1 µM and inactive = higher.
property_measured: GI50

Known GI50 results, listed for orientation:
CC(Cc1ccc(O)c(O)c1)C(C)Cc1ccc(O)c(O)c1 (stereo not given) [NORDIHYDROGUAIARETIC ACID] | 17.4 µM (inactive)
Cc1ccc2c(c1)C(=C(C#N)C#N)CCCS2(=O)=O | > 100 µM (inactive)

Query block: Please look at this compound and report its GI50: O=C1/C(=C/c2ccccc2)CCc2ccccc21
Result block: 25.6 µM (inactive)

Query block: State its GI50: CCOC(=O)c1c(N2CCOCC2)[nH]c(=O)c(C(c2ccc(N(C)C)cc2)c2c(O)c(C(=O)OCC)c(N3CCOCC3)[nH]c2=O)c1O
Result block: > 100 µM (inactive)

Query block: Provide one value: measured GI50 of O=C(COc1ccc(Cl)cc1Cl)N/N=C/C=C/c1ccc([N+](=O)[O-])o1
Result block: 3.44 µM (inactive)

---

Test system: IGROV-1
test: NCI tumour cell line growth inhibition, 48 h
Calls of active or inactive are those of the source. Cut-off read from the data, not from the text of the source: active = GI50 up to about 1.1 µM and inactive = higher.
property_measured: GI50

Example entries and their recorded answers appear below.
CN(CCNC(=O)c1cc(-c2ccccc2)nc2ccccc12)CCNC(=O)c1cc(-c2ccccc2)nc2ccccc12 | 3.6 µM (inactive)
C[Si](C)(C)OC1(C#N)c2ccccc2CCCC12CCCC2 (stereo not given) | 43.3 µM (inactive)
O=C(CC(=O)Nc1ccccc1)N/N=C/c1cc(/N=N/c2ccc(Br)cc2)ccc1O | 4.21 µM (inactive)
COC(=O)[C@H](Cc1c[nH]c2ccccc12)NP(=O)(O)OCC1C=CC(n2cc(C)c(=O)[nH]c2=O)O1 (stereo not given in full) | > 100 µM (inactive)
CC1=NN(C(=O)c2ccc(Cl)cc2)C(=O)/C1=C/c1ccc(Cl)cc1 | > 100 µM (inactive)
COc1ccc(/C(Cl)=C(\C=O)c2ccc(OC)cc2)cc1 | > 100 µM (inactive)
CC(=O)/N=C1/N(/C=C2\C(=O)Oc3ccccc3C2=O)C(=O)/C(=C/c2ccc(OC(C)=O)cc2)N1C | > 100 µM (inactive)
C=C(C)[C@@H]1CC=C(CO)CC1 | 574 µM (inactive)
Cc1c(Cl)cccc1NC(=O)C(=O)C1C(=O)NC(=O)NC1=O | > 100 µM (inactive)
Cc1cc(Br)c(O)c(-c2cscn2)c1 | 22.9 µM (inactive)

Query block: Recall the reported GI50 of Clc1ccccc1C1=NN(c2ccccc2)C2c3ccccc3OCC12 (stereo not given) on IGROV-1 and write it down.
Result block: > 100 µM (inactive)

Query block: // fetch GI50; item: CC(C)(C)OC(=O)N(CCCCNC(=O)C(F)(F)F)CCCNC(=O)C(F)(F)F ; system: IGROV-1
Result block: > 100 µM (inactive)

Query block: Name the value of GI50 reported for COc1ccc(-c2cc(O)c3nc4ccccc4n3c2)cc1 when tested on IGROV-1.
Result block: 71 µM (inactive)

Query block: Look up and report GI50, with IGROV-1 as system, for CC(C)C1=C(Cc2ccccc2)C(=O)O/C1=C\c1ccc(O)c(Cl)c1
Result block: 16.8 µM (inactive)

Query block: Provide GI50, system IGROV-1, entry COc1cc(OC)c(OC)cc1/C=C\c1nccc2ccccc12
Result block: 28.5 µM (inactive)

---

Tested on: ACHN
test: NCI tumour cell line growth inhibition, 48 h
Calls of active or inactive are those of the source. Cut-off read from the data, not from the text of the source: active = GI50 up to about 1.1 µM and inactive = higher.
Pick from active, inactive when you respond.

See these solved cases before continuing.
c1ccc([C@@H]2N[C@@]3(CO[Si](c4ccccc4)(c4ccccc4)c4ccccc4)CC[C@H]4CN[C@@H]2[C@H]43)cc1 | inactive
CC12CCC(/C(=N/c3cc(C(F)(F)F)cc(C(F)(F)F)c3)C1=O)C2(C)C (configuration not stated) | inactive

Query block: Assay result, entry O=C1/C(=C/c2ccc([N+](=O)[O-])cc2)C(=O)N(c2ccccc2)C1c1ccccc1 (configuration not stated) — outcome?
Result block: inactive

Query block: Hi, sorry to bother you, what did the test record for CC1OC(O[C@H]2CC[C@]3(C)[C@H]4CC=C5[C@@H]6[C@@H](C)[C@H](C)CC[C@]6(C(=O)OC6OC(CO)C(O)C(O)C6O)CC[C@@]5(C(=O)O)[C@]4(C)CC[C@H]3C2(C)C)C(O)C(O)C1O (some centres not stated) ?
Result block: inactive

Query block: Name the outcome recorded for Cc1cc(O)nc(CNC(=O)c2cccc3ccccc23)n1 in the assay.
Result block: inactive

Query block: Given COc1cc2nc(-c3cccs3)nc(Cl)c2cc1OC , state the outcome it received in this test.
Result block: inactive

Query block: Recorded test outcome, item CC(=O)OC1=C2CC3(C)OC(=O)CC(C)(C)C3=CC=C2C=C(C(C)C)C1=O (configuration not stated)
Result block: active

Query block: What did this assay record as the result for O=C1N/C(=N/N=C/c2cccs2)N/C1=C\c1ccco1 ?
Result block: inactive

Query block: Kindly provide the recorded test outcome for the following compound: c1ccc2c(CNCCCCCCNCc3cccc4ccccc34)cccc2c1
Result block: inactive

Query block: Which outcome did this test record for the compound COC(=O)/C(=N\NC(N)=S)C(C(=O)OC)C(=O)C(=O)Nc1ccc(C)cc1 (configuration not stated) ?
Result block: inactive

Query block: Any idea what this test logged for CC[C@H](C)C(=O)O[C@H]1CCC=C2C=C[C@H](C)[C@H](CC[C@@H]3C[C@@H](O)CC(=O)O3)[C@H]21 ?
Result block: inactive

Query block: Give the logged outcome of this assay for the following compound: CCCN(C(=O)c1ccccc1)C(C#N)c1ccc(C(C#N)N(CCC)C(=O)c2ccccc2)cc1 (configuration not stated)
Result block: inactive

Query block: Hey, what did the test say about CCc1ccccc1NC(=O)C(=O)CC(=O)c1sc(Nc2ccccc2)nc1C ?
Result block: inactive

Query block: # fetch the recorded call for CCOC(=O)C1(C/C=C/CCl)CCCC1=O (configuration not stated) here
Result block: inactive

Query block: Recorded call for CC(=O)Nc1cc(C(=O)Nc2cc(C(=O)Nc3cc(C(=O)Nc4cc(C(=O)Nc5cc(C(=O)NCCC(=O)NCCCN(C)C)n(C)c5)n(C)c4)n(C)c3)n(C)c2)n(C)c1 ?
Result block: inactive

Query block: Lab log entry: CN1CCCC2C(c3ccccc3)C(C3=NCCCC3)C(c3ccccc3)CC21 (configuration not stated) — outcome as called in the assay?
Result block: inactive

Query block: Check the results log: what was the call for CC(=O)OCC1OC(O[C@@H]2C[C@H]3C(C)(C)[C@H](OC(C)=O)CC[C@]3(C)[C@H]3CC[C@@]45C[C@H](O)C[C@H](C)[C@@H]4CC=C5[C@@]32C)C(O)C(O)C1O (some centres not stated) ?
Result block: inactive
